Recorded measurements of Herbicidal action as % damage in AMARE, one per entry
- System: Amaranthus retroflexus
- test_method_notes: Post-emergence application of herbicide H2 (foramsulfuron) and safener by the tank mix method: herbicidal action
- Type: in vivo
- experimental_parameters: safener 250 g a.i./ha + herbicide H2 (foramsulfuron) 40 g a.i./ha, post-emergence tank mix; four weeks
readout_label: Herbicidal action as % damage in AMARE (%)

| compound | readout_label | reported |
| --- | --- | --- |
| O=C(O)C=Cc1ccccc1F | Herbicidal action as % damage in AMARE | 98 |
| O=C(O)C=Cc1ccccc1O [Comp. 17, 2-hydroxycinnamic acid] | Herbicidal action as % damage in AMARE | 94 |
| O=C(O)C=Cc1ccc(Cl)cc1Cl | Herbicidal action as % damage in AMARE | 98 |
| COc1ccc(C=CC(=O)O)cc1 | Herbicidal action as % damage in AMARE | 96 |
| CCOC(=O)C=Cc1cccc(O)c1 [Comp. 191, ethyl 3-hydroxycinnamate] | Herbicidal action as % damage in AMARE | 99 |
